Test system: CEM cells HIV-1 protection, formazan growth assay
protocol.details: NCI AIDS Antiviral Assay
metric.name: EC50

Incoming: Dear colleague, I am looking for the recorded EC50 of the following compound: COCOc1c(OC)c(C2(O)C(=O)N(C)c3ccccc32)c(OCOC)c(OC)c1C1(O)C(=O)N(C)c2ccccc21 (stereo unspecified)
Outgoing: > 200 µM

Incoming: How about COc1ccc(C(C(N)=O)N2CCOCC2)cc1 (stereo unspecified) ?
Outgoing: 129 µM

Incoming: How about O=S(c1ccc(Cl)cc1)S(=O)c1ccc(Cl)cc1 (stereo unspecified) ?
Outgoing: > 22.4 µM

Incoming: How about NNC(=O)C1C2c3ccccc3C(c3ccccc32)C1C(=O)O (stereo unspecified) ?
Outgoing: > 200 µM

Incoming: How about CC1CN=C(Nc2ccccc2)S1 (stereo unspecified) ?
Outgoing: > 200 µM

Incoming: How about COc1ccc(OC)c(/C=C(/C#N)c2ccccc2)c1 ?
Outgoing: > 10.2 µM

* * *

Test system: CEM cells HIV-1 protection, formazan growth assay
protocol.details: NCI AIDS Antiviral Assay
metric.name: EC50

NC(=O)C1=NOC(C(N)=O)C1C1OC(CO)C(O)C1O (configuration not stated)    > 200 µM

Incoming: Dear colleague, I am looking for the recorded EC50 of the following compound: O=c1c2cc(Br)cc(Br)c2[nH]c(=S)n1-c1ccccc1
Outgoing: > 316 µM

Incoming: How about COc1ccc(C2=NNC(=O)C2(C)Br)cc1 (configuration not stated) ?
Outgoing: > 200 µM

Incoming: How about CC12CCC(=O)N1c1cncnc1N2 (configuration not stated) ?
Outgoing: > 1320 µM

* * *

Test system: CEM cells HIV-1 protection, formazan growth assay
protocol.details: NCI AIDS Antiviral Assay
condition: measured here: growth of uninfected CEM cells
metric.name: pIC50
Scale: pIC50 equals -log10([C]), with [C] in mol/L.

CCN(CC)/C(=C\Cl)Nc1ccccn1    3.93

Note: attention shifts to another entry.
Incoming: Dear colleague, I am looking for the recorded pIC50 of the following molecule: CN(C)c1n2c3ccc([N+](=O)[O-])cc3n3c(N(C)C)[n+]4ccccc4c3c2c2cccc[n+]12
Outgoing: 4.05

* * *

Test system: CEM cells HIV-1 protection, formazan growth assay
protocol.details: NCI AIDS Antiviral Assay
condition: measured here: growth of uninfected CEM cells
pIC50: −log10 of the molar value.
// pIC50 lookup, one value per entry

CC(C)c1ccccc1NC(=O)CCc1n[nH]c(=S)o1    < 3.49

Incoming: Dear colleague, I am looking for the recorded pIC50 of the following compound: NNc1nncc2n[nH]nc12
Outgoing: < 3.70

Incoming: How about COc1cc(C(=O)/C=C/c2ccc(OCCSCCCCCCCCCCSCCOc3ccc(/C=C/C(=O)c4cc(OC)c(OC)c(OC)c4)cc3)cc2)cc(OC)c1OC ?
Outgoing: < 3.82

Incoming: How about CN(C)C(=S)/N=C1\SC(=Nc2ccccc2)C(=Nc2ccccc2)N1c1ccc([N+](=O)[O-])cc1 ?
Outgoing: 3.86

Incoming: How about N#Cc1ccsc1C#N ?
Outgoing: < 3.70

* * *

Test system: CEM cells HIV-1 protection, formazan growth assay
protocol.details: NCI AIDS Antiviral Assay
The source made the active and inactive calls.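 The calls were made as follows: active = compounds giving half or more protection of infected cells from virus-caused growth loss, again on retest; inactive = the rest.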
metric.name: outcome

Example entries begin here.
CN(C)CC/C(=N\Nc1ccc([N+](=O)[O-])cc1)c1ccccc1    inactive
C1CCN(c2nsc(N3CCCCC3)n2)CC1    inactive
COc1ccc2c(C(=O)O)cc3cc(OC)c(OC)cc3c2c1    inactive
Cn1c(=O)c2nc(-c3ccccc3)oc2n(C)c1=O    inactive
OC1C2CCC1C1C3C=CC(C3)C21 (stereo not drawn)    inactive
Cc1ccc(NC(=S)SCCC(=O)O)cc1    inactive

Incoming: Dear colleague, I am looking for the recorded outcome of the following molecule: O=C1CC([C@H](NC(=O)OCc2ccccc2)C(=O)O)ON1 (stereo partly drawn)
Outgoing: inactive

Incoming: How about Fc1ccc(N=C2C=CC(=Nc3ccc(F)cc3)c3ccccc32)cc1 ?
Outgoing: inactive

Incoming: How about CC[C@H]1CN2CCc3cc(OC)c(OC)cc3[C@@H]2C[C@@H]1C[C@@H]1c2cc(OC)c(OC)cc2CCN1N=O ?
Outgoing: inactive

Incoming: How about CNC1C(O)C(OC2C(N)CC(N)C(OC3OC(CN)=CCC3N)C2O)OCC1(C)O (stereo not drawn) ?
Outgoing: inactive

Incoming: How about COC(=O)[C@@H]1[C@H]2C[C@@H]3c4[nH]c5ccccc5c4CCN3C[C@@H]2CC[C@@H]1O ?
Outgoing: inactive

Incoming: How about CCOC(=O)C/C(N)=C(\C#N)C(=O)OCC ?
Outgoing: inactive

Incoming: How about CC(=O)OC1C[C@@]2(C)C(CC[C@@H]2C(C)=O)[C@@H]2CC=C3C[C@@H](O)CC[C@]3(C)C12 (stereo partly drawn) ?
Outgoing: inactive

Incoming: How about COC(=O)NC(S(=O)(=O)O)S(=O)(=O)O ?
Outgoing: inactive

* * *

System: CEM cells HIV-1 protection, formazan growth assay
protocol.details: NCI AIDS Antiviral Assay
metric.name: EC50

O=C1C=CC(=O)c2c1ccc1c3ccccc3n(Cc3ccc([N+](=O)[O-])cc3)c21    > 200 µM

Incoming: Dear colleague, I am looking for the recorded EC50 of the following compound: COC(=O)CC1(C(=O)OC)Nc2cc(Cl)c(Cl)cc2S(=O)(=O)N1O (stereo unspecified)
Outgoing: 69.2 µM

Incoming: How about CCOC(=O)CCC[P+](c1ccccc1)(c1ccccc1)c1ccccc1 ?
Outgoing: > 200 µM

Incoming: How about Cc1ccc(C)c(N2C(=O)C(=O)C(c3nc4ccccc4s3)/C(=N/N)C2=O)c1 (stereo unspecified) ?
Outgoing: > 50.1 µM

Incoming: How about CCc1cccc(C)c1NC(=O)NS(=O)(=O)c1ccc(C)cc1 ?
Outgoing: > 759 µM

* * *

Test system: CEM cells HIV-1 protection, formazan growth assay
protocol.details: NCI AIDS Antiviral Assay
condition: measured here: growth of uninfected CEM cells
metric.name: IC50

CCCCCCCCCO/N=C\c1c2c(O)c3c(O)c(C)c4c(c3c1O)C(=O)C(C)(O/C=C\C(OC)C(C)C(OC(C)=O)C(C)C(O)C(C)C(O)C(C)/C=C\C=C(\C)C(=O)N2)O4 (stereo not drawn)    3.16 µM

Incoming: Dear colleague, I am looking for the recorded IC50 of the following compound: c1csc(-c2cc(-c3ccsc3)cs2)c1
Outgoing: > 200 µM

Incoming: How about O=c1[nH]c(-c2nc3ccccc3c(=O)[nH]2)nc2ccccc12 ?
Outgoing: > 32.4 µM

* * *

Test system: CEM cells HIV-1 protection, formazan growth assay
protocol.details: NCI AIDS Antiviral Assay
condition: measured here: growth of uninfected CEM cells
// IC50 lookup, one value per entry
Response body: numeric value in µM, unit text excluded.

Example entries begin here.
Cc1ccc(-n2cc(-c3ccc(Cl)cc3)c3c(N/N=C4\SCC(=O)N4C)ncnc32)cc1    8.32
CCCCNc1nc(C#N)c(N)s1    204

Incoming: Dear colleague, I am looking for the recorded IC50 of the following molecule: COc1ccc(-c2nc(N)c(C#N)c3c2CCS(=O)(=O)c2ccc(C)cc2-3)cc1OC
Outgoing: 11.2

* * *

Tested on: CEM cells HIV-1 protection, formazan growth assay
protocol.details: NCI AIDS Antiviral Assay
condition: measured here: growth of uninfected CEM cells
pIC50: −log10 of the molar value. Where a SMILES comes first, the peptide text is derived from it. The star is where a group is joined. Cbz = O=C(OCc1ccccc1)*; Bn = c1ccc(C*)cc1
metric.name: pIC50

Example entries begin here.
O=C1[C@@H]2C(c3ccccc3[N+](=O)[O-])=[N+](c3ccccc3)O[C@@H]2C(=O)N1c1ccc(Cc2ccc(N3C(=O)[C@H]4C(c5ccccc5[N+](=O)[O-])=[N+](c5ccccc5)O[C@H]4C3=O)cc2)cc1    < 5.07
N[C@@H](CSSCCO)C(=O)O    < 3.70
COC(=O)C(Cc1ccc(O)cc1)NC(=O)C(COCc1ccccc1)NC(=O)OCc1ccccc1 (stereo unspecified) (Cbz-Ser(Bn)-Tyr-OMe; configuration not given here)    4.52
O=C(O)c1ccccc1C(=O)Nc1ccc(S(=O)(=O)Nc2nccs2)cc1    < 3.70

Incoming: Dear colleague, I am looking for the recorded pIC50 of the following molecule: O=C(OCCc1ccccc1)c1cc2ccc(O)c(O)c2cn1
Outgoing: < 5.08

Incoming: How about C#CC(C)(C)OCCCCOc1cc(O)c2c(=O)c3ccccc3n(C)c2c1 ?
Outgoing: < 5.42

* * *

Test system: CEM cells HIV-1 protection, formazan growth assay
protocol.details: NCI AIDS Antiviral Assay
condition: measured here: growth of uninfected CEM cells
Binary label based on IC50 with cut-off 40 µM: below gives Y, not below gives N.

O=c1c2cccc3cccc(c4n1CCCN=4)c32    Y
CCOC(=O)c1ccc(C(=O)/C(C(C)=O)=C2\CCCN2C)n1C    N
COc1cc2ccc(C(=O)NCCCNC(=O)c3ccc4cc(OC)c(OC)cc4c3)cc2cc1OC    N
Cc1c(O)c2ccccc2c2c1sc(NCCCN(CCO)CCO)[n+]2C    Y

Incoming: Hello, is IC50 of the following compound strictly smaller than 40 µM? COC(=O)[C@H](C)NC(=O)[C@H](NS(=O)(=O)c1nc2ccccc2s1)c1ccccc1
Outgoing: Y

Incoming: How about CCOc1nc2sc3c(c2c(=O)n1CCSSCCn1c(OCC)nc2sc4c(c2c1=O)CCCC4)CCCC3 ?
Outgoing: N

Incoming: How about CCOC(=O)c1c(C)nc2c3ccccc3c(C#N)c(C)n12 ?
Outgoing: N

Incoming: How about O=C1c2ccccc2-c2nc(-c3ccccc3)cc3c2c1nc1ccccc13 ?
Outgoing: Y

Incoming: How about O=[N+]([O-])c1cccc2c([As](=O)(O)O)cccc12 ?
Outgoing: N

Incoming: How about COP(=O)(OC)C(Cc1c[nH]c2ccccc12)NC(=O)OCc1ccccc1 (configuration not stated) ?
Outgoing: N

Incoming: How about c1ccc2c(c1)ccn2CCc1c[nH]c2ccccc12 ?
Outgoing: N

Incoming: How about O=S(=O)(SS(=O)(=O)c1ccc(Cl)cc1)c1ccc(Cl)cc1 ?
Outgoing: N

Incoming: How about NC(N)=NCCN1CC2CCC(CC2)C1 ?
Outgoing: N

Incoming: How about CN(CCO)CCCC1COc2ccccc2O1 (configuration not stated) ?
Outgoing: N

Incoming: How about O=C1c2ccccc2N2OC3C4CCC(C4)C3C12c1ccccc1 (configuration not stated) ?
Outgoing: Y
